# protocol-details: cAMP Responsive Elements (CRE) small molecule agonists, cell-based qHTS assay: qHTS cell viability counter screen (AID 2060914);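 also: viability read after 3 h of compound exposure; nearly all actives have a fitted effect of over 50% in size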
# condition-context: CRE-bla HEK293T viability, CellTiter-Glo luminescence, 5 h; series mostly up to 92.4 µM
Records with an inconclusive call do not appear. Calls of active or inactive are those of the source. Calls follow the shape of the dose curve; as a rule, active = well fitted cell-killing curve with a large enough effect in the repeat runs; inconclusive = weak or mixed curves, or effect the other way; inactive = flat fitted curve, though single readings scatter.
observable: outcome

Sample records with outcome:
{"molecule": "Cc1cccc(OP(=O)(Oc2cccc(C)c2)Oc2cccc(C)c2)c1", "outcome": "inactive"}
{"molecule": "CC(C)CC(N(C)C)C1(c2ccc(Cl)cc2)CCC1 (stereo not drawn)", "outcome": "inactive"}
{"molecule": "CCN(CC)C(=O)SCc1ccc(Cl)cc1", "outcome": "inactive"}
{"molecule": "CCS(=O)(=O)C(C)(C)S(=O)(=O)CC", "outcome": "inactive"}
{"molecule": "C1=Cc2cccc3cccc1c23", "outcome": "inactive"}

Problem: Which outcome is reported for this molecule? CN1[C@@H]2CC[C@H]1CC(O)C2 (stereo partly drawn)
Solution: inactive

Problem: Requested read-out: outcome. Entry: COC(=O)N(C(=O)N1COC2(C(=O)OC)Cc3cc(Cl)ccc3C2=N1)c1ccc(OC(F)(F)F)cc1 (stereo not drawn)
Solution: inactive

Problem: Need outcome, item Cc1ccc(N)cc1N
Solution: inactive

Problem: Request the reported outcome associated with CCC[CH2][Sn]([Cl])([Cl])[Cl]
Solution: inactive

Problem: Can you look up the measured outcome of O=C1NC(=O)C(=O)C(=O)N1 for me?
Solution: inactive

Problem: Could you tell me which outcome is on file for Cc1cnc(C2=NC(C)(C(C)C)C(=O)N2)c(C(=O)O)c1 (stereo not drawn) ?
Solution: inactive

Problem: outcome lookup needed for C[C@]12CC[C@H]3[C@@H](CCC4=CC(=O)CC[C@@]43C)[C@@H]1CC[C@@H]2O , thanks.
Solution: inactive

Problem: Data request, read-out outcome, for CCBr
Solution: inactive
